tested on: IPOHE (Ipomoea hederacea); assay: Preemergence herbicidal evaluation; format: in vivo, (L.) Jacq.; conditions: Rate 0.0620 kg/ha; rated 4-5 weeks after treatment
Please mark y if the recorded Preemergence herbicidal rating IPOHE is equal to or greater than 4, and n if it falls below.

Molecule	Group Label
CCOc1cc(OCC)nc(-c2nsc3ccc(-n4c(=O)cc(C(F)(F)F)n(C)c4=O)cc23)n1	n
C=CC1COC(c2nsc3ccc(-n4c(=O)cc(C(F)(F)F)n(C)c4=O)cc23)O1 (stereo not shown)	y
C[C@@H]1C[C@H](C)OC(c2nsc3ccc(-n4c(=O)cc(C(F)(F)F)n(C)c4=O)cc23)O1 (stereo partly shown)	y
Cn1c(C(F)(F)F)cc(=O)n(-c2ccc3snc(-c4sccc4CBr)c3c2)c1=O	n
Cn1c(C(F)(F)F)cc(=O)n(-c2cc3c(C4OCCCO4)nsc3cc2F)c1=O	y

Now examine the next entry.
Hi team, for Cn1c(C(F)(F)F)cc(=O)n(-c2ccc3snc(C4=NCCO4)c3c2)c1=O , is the recorded Preemergence herbicidal rating IPOHE at or above 4? n
